- Tested on: CCRF-CEM leukemia
- Assay procedure: NCI-60 one-dose screen, 48 h (100 = growth as untreated, 0 = no growth, -100 = all killed)
- Test context: 10 µM unless noted
The panel holds about 83,000 compounds, 20% with a hit somewhere; the sample as a whole holds those more often.
# strict inequality: growth < 10% yields 1.0, everything else yields 0.0

Compound: CC(C)CNCC(O)COc1ccc(C(C)(C)c2ccc(OCC(O)CNCC(C)C)cc2)cc1 (centres undefined)
Qualitative label: 1.0

Compound: O=C(NNC(=O)c1ccc([N+](=O)[O-])cc1)c1ccc([N+](=O)[O-])cc1
Qualitative label: 0.0

Compound: O=C(Nc1ccc(-n2ccc3c(NC(=O)c4ccccc4)nccc32)cc1)Nc1cccc(C(F)(F)F)c1
Qualitative label: 0.0

Compound: Cc1cccc(NC(=O)CCc2ccc(N3C(N)=NC(N)=NC3(C)C)cc2)c1
Qualitative label: 0.0

Compound: N#CC(C#N)=C(C#N)c1c[nH]c2ccccc12
Qualitative label: 0.0

Compound: Cc1cc(NC(=O)c2cccc(C(F)(F)F)c2)ccc1-n1ccc2c(NC(=O)c3ccccc3)nccc21
Qualitative label: 0.0

Compound: CCOc1ccc(Cc2nccc3cc(OCC)c(OCC)cc23)cc1OCC
Qualitative label: 0.0

Compound: N#CC1=C(N)Oc2c(ccc3ccccc23)C1c1cc(=O)oc2ccc(Cl)cc12 (centres undefined)
Qualitative label: 0.0

Compound: O=C(Nc1ccc(F)cc1)Nc1ccc(Cl)c([N+](=O)[O-])c1
Qualitative label: 0.0

Compound: COC(=O)c1ccc(NC(N)=NCC(C)(C)COc2ccc(C(F)(F)F)cc2)nc1
Qualitative label: 0.0

Compound: Nc1nccc2c1ccn2-c1cccc(NC(=O)c2ccc(N3CCOCC3)c(C(F)(F)F)c2)c1
Qualitative label: 1.0

Compound: CCCC(=O)Oc1ccc(/C(=C(\C)c2ccc(OC)cc2)c2ccc(OCCN3CCCCC3)cc2)cc1
Qualitative label: 0.0

Compound: O=C(Nc1cccc(-n2ccc3c(NC(=O)c4ccccc4)nccc32)c1)Nc1ccc(Cl)c(C(F)(F)F)c1
Qualitative label: 1.0

Compound: CCC1(C(N)=O)CC2C=CC1CC2 (centres undefined)
Qualitative label: 0.0

Compound: COc1ccc(CNc2nc3ccccc3c3c(=O)c4ccccc4sc23)cc1OC
Qualitative label: 0.0

Compound: COc1cc2ncnc(Oc3ccc(NC(=O)Nc4ccc(CN5CCOCC5)c(C(F)(F)F)c4)c4ccccc34)c2cc1OC
Qualitative label: 0.0

Compound: O=C(Nc1cccc(-n2ccc3c(NC(=O)c4ccccc4)nccc32)c1)c1cc(N2CCOCC2)cc(C(F)(F)F)c1
Qualitative label: 0.0

Compound: COc1ccc(/C=C/C(=O)c2ccc(-n3cc(CN4CCN(c5cc6c(cc5F)c(=O)c(C(=O)O)cn6C5CC5)CC4)nn3)cc2)cc1OC
Qualitative label: 1.0

Compound: CC[C@@]1(O)C(=O)OCc2c1cc1n(c2=O)Cc2c-1nc1ccccc1c2/C=N/OC(C)(C)C
Qualitative label: 1.0

----------
- Test system: MOLT-4 leukemia
- Assay procedure: NCI-60 one-dose screen, 48 h (100 = growth as untreated, 0 = no growth, -100 = all killed)
- Test context: 10 µM unless noted
About 83,000 compounds went through this panel and 20% of them were active in at least one assay; those are over-represented in the sample as a whole.
Quick reference: growth of the listed items.
Quantity: growth (%)

Molecule: COc1ccc(-c2ccc(NC(=O)Nc3cccc(C(F)(F)F)c3)c(C)n2)cc1
Target: MOLT-4 leukemia
Recorded number: 33.7
//
Molecule: Cn1c2ccccc2c2ssc(=S)c21
Target: MOLT-4 leukemia
Recorded number: 75.5
//
Molecule: Nc1nc(Cl)cc(NCc2ccc(CNc3cc(Cl)nc(N)n3)cc2)n1
Target: MOLT-4 leukemia
Recorded number: 70.7
//
Molecule: O=C(Cn1c2ccccc2c2ccncc21)N/N=C\c1ccc2ccccc2c1
Target: MOLT-4 leukemia
Recorded number: 41.7
//
Molecule: Nc1ncnc2c1c(C(F)(F)F)cn2[C@@H]1O[C@H](CO)[C@@H](O)[C@H]1O
Target: MOLT-4 leukemia
Recorded number: 0.0629
//
Molecule: COc1ccc(-c2coc3c(CO)c(O)ccc3c2=O)cc1
Target: MOLT-4 leukemia
Recorded number: 91.3
//
Molecule: S=C=NP1(N=C=S)=NP(N=C=S)(N=C=S)=NP(N=C=S)(N=C=S)=NP(N=C=S)(N=C=S)=N1 (stereo not given)
Target: MOLT-4 leukemia
Recorded number: 57.9
//
Molecule: C=C1C(=O)O[C@H]2[C@H]1CC/C(COC(=O)c1ccc(C#N)cc1)=C\CC[C@@]1(C)O[C@@H]21
Target: MOLT-4 leukemia
Recorded number: -29.3
//
Molecule: COc1cc(/C=C/C(=O)c2ccc(Oc3ncnc4ccccc34)cc2)cc(OC)c1OC
Target: MOLT-4 leukemia
Recorded number: 62.3
//
Molecule: CC1CCC(C(C)C)C(NN)C1 (stereo not given)
Target: MOLT-4 leukemia
Recorded number: 65.9
//
Molecule: CCC(C)Nc1ccc(N)cc1 (stereo not given)
Target: MOLT-4 leukemia
Recorded number: -13.7
//
Molecule: CCCCOc1nc2ccc(Cl)cc2cc1/C=C/C(=O)/C=C/c1ccc(Cl)cc1
Target: MOLT-4 leukemia
Recorded number: 71.5
//
Molecule: CCCCCCCCCCCCCCCCNc1ccccc1
Target: MOLT-4 leukemia
Recorded number: 43.1
//
Molecule: CCCCCn1ncc(-c2c(O)c(O)cc3c(O)c(-c4c(C)cc5c(-c6cnn(CCCCC)n6)c(O)c(O)cc5c4O)c(C)cc23)n1
Target: MOLT-4 leukemia
Recorded number: 6.44
//
Molecule: Cc1ccc2nc(-c3ccc(-n4on4-c4ccc(/C=C/c5ccc(-n6on6-c6ccc(-c7nc8ccc(C)cc8s7)cc6)cc5S(=O)(=O)O)c(S(=O)(=O)O)c4)cc3)sc2c1
Target: MOLT-4 leukemia
Recorded number: 93.9
//
Molecule: C=CCn1c(SCC(=O)Nc2ccc(/C(C)=N\O)cc2)nnc1-c1cc(-c2ccc(OC)cc2)nc2ccccc12
Target: MOLT-4 leukemia
Recorded number: 1.81
//
Molecule: O=C(Nc1cccc(-n2ccc3c(NC(=O)c4ccccc4)nccc32)c1)c1cc(N2CCOCC2)cc(C(F)(F)F)c1
Target: MOLT-4 leukemia
Recorded number: 0.605
//
Molecule: CCCCOc1c(N)cccc1C(=O)OCCN(CC)CC
Target: MOLT-4 leukemia
Recorded number: 60.2
//
Molecule: Nc1ccc(S(=O)(=O)Nc2ccnn2-c2ccccc2)cc1
Target: MOLT-4 leukemia
Recorded number: 98.1
//
Molecule: CC1=C[S+](c2ccccc2)c2cccc3cc4ccccc4c1c23 (stereo not given)
Target: MOLT-4 leukemia
Recorded number: -23.5

----------
- Tested on: NCI-H460 lung
- Assay procedure: NCI-60 one-dose screen, 48 h
- Test context: 10 µM unless noted
- Method: Growth inhibition of the NCI-H460 human Non-Small Cell Lung tumor cell line is measured as a screen for anti-cancer activity. Cells are grown in 96 well plates and exposed to the test compound for 48 hours. Compounds are tested at a single concentration, which is 10^-5 M for most compounds. The reported endpoint is percent growth (GI% or GIPRCNT), where numbers from 0 - 100% represent growth inhibition, and numbers from -100% - 0 represent cell death. […]
The panel holds about 83,000 compounds, 20% with a hit somewhere; the sample as a whole holds those more often. The source made the active and inactive calls. The calls were made as follows: active = growth percent below 10; inactive = the rest.
Classes used: true (active), false (inactive)

Molecule: COc1ccc(/C(Cl)=N/N=C(\Cl)c2cc(OC)c(OC)c(OC)c2)cc1OC(C)=O
Qualitative label: false
--
Molecule: ClC1c2ccccc2CCc2ccccc21
Qualitative label: false
--
Molecule: CS(=O)(=O)Nc1cccc(-c2ccc3ncnc(Nc4cncc(Cl)c4)c3c2)c1
Qualitative label: false
--
Molecule: CCN(CC)C(=O)C1CCN(C(=O)c2ccccc2)CC1
Qualitative label: false
--
Molecule: CCCOC(=O)c1ccc([N+](=O)[O-])o1
Qualitative label: false
--
Molecule: COC(=O)CCCNS(=O)(=O)c1cc(C(=O)Nc2ccc(NC(=O)c3cc(S(=O)(=O)NCCCC(=O)OC)c(O)c(O)c3O)cc2)c(O)c(O)c1O
Qualitative label: false
--
Molecule: CC(=O)Nc1ccc(OC(=O)c2ccccc2O)cc1
Qualitative label: false
--
Molecule: COc1ccc(CNc2nc3ccccc3c3c(=O)c4ccccc4sc23)cc1OC
Qualitative label: false
--
Molecule: O=S(=O)(O)c1ccc(F)cc1
Qualitative label: false
--
Molecule: CCC(C)Nc1ccc(N)cc1 (stereo unspecified)
Qualitative label: true
--
Molecule: Cc1c(C(C)(C)C)cc(C(C)(C)C)c2c1CN(C)CO2
Qualitative label: false

----------
- System: COLO 205 colon
- Assay procedure: NCI-60 one-dose screen, 48 h (100 = growth as untreated, 0 = no growth, -100 = all killed)
- Test context: 10 µM unless noted
About 83,000 compounds went through this panel and 20% of them were active in at least one assay; those are over-represented in the sample as a whole. Calls of active or inactive are those of the source. How the source made its calls: active means growth percent below 10; inactive means the rest.
Quick reference: growth of the listed items.

Compound: CCCCOc1nc2ccc(Cl)cc2cc1/C=C/C(=O)/C=C/c1ccc(Cl)cc1
growth: 62% (inactive)

Compound: COc1ccc(Cl)cc1NC(=O)c1cc2c(n1C)-c1nc(NC(=O)C(C)(C)C)sc1CC2
growth: 97.7% (inactive)

Compound: COc1cc(-c2nc3ccccc3s2)ccc1OCc1nc2n(n1)S(=O)(=O)c1ccccc1N2C
growth: 102% (inactive)

Compound: CC(=O)Nc1ccc(OC(=O)c2ccccc2O)cc1
growth: 108% (inactive)

Compound: CCOC(=O)C1CN(Cc2ccccc2)C(=O)C1=O (stereo not given)
growth: 93.6% (inactive)

Compound: O=C1/C(=C/c2cccc3cnccc23)Cc2cc(F)ccc21
growth: 81.8% (inactive)

Compound: CC(C)(C)NCC(O)COc1c(Br)c(Br)c(Br)c2c1OC(C)(C)C2 (stereo not given)
growth: -58.3% (active)

Compound: Nc1ccc(S(=O)(=O)Nc2ccnn2-c2ccccc2)cc1
growth: 109% (inactive)

Compound: O=C(Nc1cccc(-n2ccc3c(NC(=O)c4ccccc4)nccc32)c1)c1cc(N2CCOCC2)cc(C(F)(F)F)c1
growth: -51.4% (active)

Compound: O=C(O)c1cccc2oc(-c3ccccc3O)nc12
growth: 12.4% (inactive)
